- experimentSummary: chemical genetic growth profiling, strain panel (AID 1159580);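 also: tested at 20 µM; growth read once vehicle control cultures reached saturation at 30 °C; 1 = growth at the plate median or of vehicle wells; lower values mean less growth of the strain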
- setupConditions: S. cerevisiae deletion strains, growth OD, locus YOR070C, strain gyp1, stronger effect = lower value
Counter-ions that a name gives are not always drawn. About 2,000 (36%) of roughly 5,500 compounds were called active. Inconclusive results (about 18%) are left out. The list shows a part of the results. Where a SMILES comes first, the peptide text is derived from it. The star is where a group is joined. Tfa = O=C(C(F)(F)F)*

>  <compound>
Cc1cc(NC(=O)C2=C(O)c3ccccc3S(=O)(=O)N2C)no1

>  <normalized growth>
0.971

$$$$
>  <compound>
CC(C)COCC(CN(Cc1ccccc1)c1ccccc1)N1CCCC1 (configuration not stated)

>  <normalized growth>
1.02

$$$$
>  <compound>
C[C@@H]1C(=O)OC2[C@H](O)C34[C@@H]5OC(=O)[C@@]3(O[C@@H]3OC(=O)[C@H](O)[C@@]34[C@H](C(C)(C)C)[C@H]5O)[C@]21O (some centres not stated)

>  <normalized growth>
0.988

$$$$
>  <compound>
CC(C)C(NC(=O)C(Cc1ccc(O)cc1)NC(=O)C(NC(=O)C(F)(F)F)C(C)C)C(=O)O (stereo not drawn) (Tfa-Val-Tyr-Val-OH; configuration not given here)

>  <normalized growth>
0.995

$$$$
>  <compound>
COc1ccc([C@H]2Oc3cc(OC)cc(OC)c3C[C@H]2O)cc1

>  <normalized growth>
0.99

$$$$
>  <compound>
CC(C)(Oc1ccc(C2CC2(Cl)Cl)cc1)C(=O)O (configuration not stated)

>  <normalized growth>
0.998

$$$$
>  <compound>
COC(=O)C(C)c1ccc(C(=O)c2cccs2)cc1 (configuration not stated)

>  <normalized growth>
1.01

$$$$
>  <compound>
CC(C)NC[C@H](O)COc1cccc2ccccc12

>  <normalized growth>
0.998

$$$$
>  <compound>
Nc1nc2ncc(=O)[nH]c2c(=O)[nH]1

>  <normalized growth>
0.983

$$$$
>  <compound>
CC(C)(C)CC(C)(C)c1ccc(O)c(Cc2ccc(Cl)cc2Cl)c1

>  <normalized growth>
1.01

$$$$
>  <compound>
O=C1[C@H](CCC(O)c2ccc(F)cc2)[C@@H](c2ccc(O)cc2)N1c1ccc(F)cc1 (some centres not stated)

>  <normalized growth>
0.982

$$$$
>  <compound>
O=C1C=C2C=C[C@@H]3C[C@@]2(O1)[C@H]1CCCCN31

>  <normalized growth>
0.991

$$$$
>  <compound>
C=C1CCC(OC(C)=O)/C(C)=C/C[C@@H]2[C@@H]1CC2(C)C (some centres not stated)

>  <normalized growth>
1

$$$$
>  <compound>
Nc1ccn(C2O[C@H](CO)[C@@H](O)[C@@H]2O)c(=O)n1 (some centres not stated)

>  <normalized growth>
0.993

$$$$
>  <compound>
O=C1OC(c2ccc(O)cc2)(c2ccc(O)cc2)c2ccccc21

>  <normalized growth>
0.991

$$$$
>  <compound>
Cc1cccc(C)c1NC1=NCCCS1

>  <normalized growth>
1.01

$$$$
>  <compound>
CC(C)NNC(=O)c1ccncc1

>  <normalized growth>
1.01

$$$$
>  <compound>
NC(CO)C(=O)NNCc1ccc(O)c(O)c1O (configuration not stated)

>  <normalized growth>
0.972

$$$$
>  <compound>
COc1c(OC)c2occc2c2oc(=O)ccc12

>  <normalized growth>
0.977

$$$$
>  <compound>
CCCCCCCCCCCCCCCC(=O)OC1C(SC)OC(C(NC(=O)C2CC(CCC)CN2C)C(C)Cl)C(O)C1O (configuration not stated)

>  <normalized growth>
0.972

$$$$
>  <compound>
O=C(C1CCCCC1)N1CC(=O)N2CCc3ccccc3C2C1 (configuration not stated)

>  <normalized growth>
1

$$$$
>  <compound>
COc1cc([C@@H]2c3cc4c(c(O)c3C[C@H]3COC(=O)[C@@H]32)OCO4)cc(OC)c1OC

>  <normalized growth>
0.987

$$$$
>  <compound>
COc1cc(OC)c2c(=O)c(-c3ccccc3)coc2c1

>  <normalized growth>
0.976

$$$$
>  <compound>
O=c1[nH]oc2c1CCNC2

>  <normalized growth>
0.999

$$$$
>  <compound>
Clc1cccc(Cl)c1NC1=NCCN1

>  <normalized growth>
0.996

$$$$
>  <compound>
O=c1cc(-c2ccccc2O)oc2cc(O)ccc12

>  <normalized growth>
0.978

$$$$
>  <compound>
CC1(C)NC(=O)N(c2ccc([N+](=O)[O-])c(C(F)(F)F)c2)C1=O

>  <normalized growth>
0.987

$$$$
>  <compound>
CC(=O)N[C@@H](CS)C(=O)O

>  <normalized growth>
1

$$$$
>  <compound>
CC[N+](CC)(CC)CCOc1cccc(OCC[N+](CC)(CC)CC)c1OCC[N+](CC)(CC)CC

>  <normalized growth>
1.02

$$$$
>  <compound>
COC(=O)C1=CCCN(C)C1

>  <normalized growth>
1.01

$$$$
>  <compound>
COc1ccc(-c2coc3cc(OC)cc(OC)c3c2=O)cc1

>  <normalized growth>
1.01

$$$$
>  <compound>
O=C1OC2(c3ccc(O)cc3Oc3cc(O)ccc32)c2ccccc21

>  <normalized growth>
1.01

$$$$
>  <compound>
CC1(C)O[C@H]2[C@H](O)C[C@](O)(C(N)=O)C[C@H]2O1

>  <normalized growth>
1.01

$$$$
>  <compound>
C[N+]1(C)C2CC(OC(=O)[C@@H](CO)c3ccccc3)CC1C1OC12 (some centres not stated)

>  <normalized growth>
0.99

$$$$
>  <compound>
C=C1CCC2C(CC2(C)C)C(=O)CCC1O (configuration not stated)

>  <normalized growth>
1.02

$$$$
>  <compound>
COc1cc(-c2coc3cc(OC)c(OC)c(OC)c3c2=O)cc(OC)c1OC

>  <normalized growth>
0.991

$$$$
>  <compound>
O=S1OCC2C(CO1)C1(Cl)C(Cl)=C(Cl)C2(Cl)C1(Cl)Cl (configuration not stated)

>  <normalized growth>
0.979

$$$$
>  <compound>
COC(=O)C(O)c1ccccc1 (configuration not stated)

>  <normalized growth>
1.01

$$$$
>  <compound>
CCOC(=O)[C@H](CCc1ccccc1)N[C@@H](C)C(=O)N1[C@H](C(=O)O)C[C@@H]2CCC[C@@H]21

>  <normalized growth>
0.991

$$$$
>  <compound>
Oc1ccc(Cl)cc1

>  <normalized growth>
1

$$$$
>  <compound>
CCOC(=O)c1ccc(O)cc1

>  <normalized growth>
1.01

$$$$
>  <compound>
COc1cc2occ(-c3ccccc3)c(=O)c2c(OC)c1C

>  <normalized growth>
0.982

$$$$

Values compiled from PubChem BioAssay AID1159580.
